- experimental-system: glucagon receptor (GCGR) (human, UniProt P47871 26-477)
- Sequence (P47871 26-477): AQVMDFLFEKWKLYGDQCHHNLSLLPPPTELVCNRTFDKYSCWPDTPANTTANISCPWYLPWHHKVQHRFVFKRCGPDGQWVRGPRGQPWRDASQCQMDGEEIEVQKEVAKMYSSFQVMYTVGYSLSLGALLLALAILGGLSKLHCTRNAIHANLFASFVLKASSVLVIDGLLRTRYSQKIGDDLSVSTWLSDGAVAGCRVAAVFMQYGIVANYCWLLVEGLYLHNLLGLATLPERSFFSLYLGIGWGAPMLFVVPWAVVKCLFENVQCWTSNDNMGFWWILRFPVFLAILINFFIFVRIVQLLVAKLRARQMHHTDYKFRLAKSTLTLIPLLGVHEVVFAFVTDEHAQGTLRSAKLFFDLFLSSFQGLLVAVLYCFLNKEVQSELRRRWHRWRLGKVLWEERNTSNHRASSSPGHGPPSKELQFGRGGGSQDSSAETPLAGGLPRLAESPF
- experiment-description: cell-based or functional assay
Non-standard residues stand in square brackets, D forms with d. Groups on a side chain read outwards from the residue. No end group written: not given here. Dodecylbenzoate = dodecylbenzoyl lipid group; αMeF = C[C@](N)(Cc1ccccc1)C(=O)O; αMeK = C[C@](N)(CCCCN)C(=O)O; αMeS = C[C@](N)(CO)C(=O)O; Aib = CC(C)(N)C(=O)O; Ahx = NCCCCCC(=O)O
property-name: Primary assay EC50 (cAMP), Gluc-R, second run (nM)

What value of Primary assay EC50 (cAMP), Gluc-R, second run has been recorded for this entry: H[Aib]EGS[αMeF]TSDV[αMeS]S[αMeF]LEGEAA[αMeK]E[αMeF]IA[αMeF]VVK([Ahx-Ahx-Ahx-Dodecylbenzoate])GG-NH2 [SEQ ID NO 178]
26

What value of Primary assay EC50 (cAMP), Gluc-R, second run has been recorded for this entry: H[Aib]EGS[αMeF]TSDV[αMeS]S[αMeF]LEGEAA[αMeK]E[αMeF]IA[αMeF]VVK([Ahx-Ahx-Dodecylbenzoate])GG-NH2 [SEQ ID NO 177]
27

Just for reference, patent US20200079833A1 is where these values come from.
